- assayed_system: Fuc(a1-2)[Gal(a1-3)]Gal(b1-4)[Fuc(a1-3)]Glc
- assay_overview: glycan array binding signal (z-score within array); higher = stronger binding
- condition_summary: glycan notation: IUPAC condensed, linker removed
Only a selection was taken, and the strongest signals are over-represented in it overall.
recorded_metric: glycan array binding signal (z-score)
Give bare numbers.

binder | glycan array binding signal (z-score)
Drgal1 (Danio rerio) (protein) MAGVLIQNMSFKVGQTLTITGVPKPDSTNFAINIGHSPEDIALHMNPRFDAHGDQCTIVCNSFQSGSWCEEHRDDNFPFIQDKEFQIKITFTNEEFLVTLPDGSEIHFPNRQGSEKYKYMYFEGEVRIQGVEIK | -0.54

In: Hello, please tell me recorded glycan array binding signal (z-score) for this one: SP15308F-bth-333-19-333 (Bacteroides thetaiotaomicron) (protein) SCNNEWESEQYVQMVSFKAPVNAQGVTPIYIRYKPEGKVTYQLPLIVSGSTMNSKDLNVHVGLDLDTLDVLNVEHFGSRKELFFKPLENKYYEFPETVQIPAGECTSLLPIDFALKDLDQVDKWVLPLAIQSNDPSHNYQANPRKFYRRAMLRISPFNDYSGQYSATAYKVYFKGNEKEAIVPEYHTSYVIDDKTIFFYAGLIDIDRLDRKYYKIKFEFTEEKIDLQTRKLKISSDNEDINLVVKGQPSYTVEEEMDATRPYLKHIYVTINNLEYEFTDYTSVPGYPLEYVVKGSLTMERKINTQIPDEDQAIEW
Out: -0.455
